Value source: paper PMC4045209

- TESTED SYSTEM: NRH-quinone oxidoreductase 2 (NQO2-F47) (Homo sapiens, UniProt P16083, L47F)
- Sequence (P16083 whole entry L47F): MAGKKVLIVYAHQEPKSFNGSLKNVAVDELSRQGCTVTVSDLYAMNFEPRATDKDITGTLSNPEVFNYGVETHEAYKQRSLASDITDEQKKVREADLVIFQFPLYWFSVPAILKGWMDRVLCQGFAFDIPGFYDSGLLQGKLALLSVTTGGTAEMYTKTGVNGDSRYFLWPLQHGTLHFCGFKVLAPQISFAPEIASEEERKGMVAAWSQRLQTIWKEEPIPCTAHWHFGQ
- ASSAY COMMENT: thermal scanning fluorimetry KD,app (FAD fluorescence)
- Type: binding
- CONDITION SUMMARY: read-out: Kd
PROPERTY: Kd (µM)
Kindly answer with a numeric value in µM, unit omitted.

The compound listed as O=c1oc2ccccc2c(O)c1Cc1c(O)c2ccccc2oc1=O [dicoumarol] has a reported Kd of 33.7

* * *

- TESTED SYSTEM: NRH-quinone oxidoreductase 2 (NQO2-F47) (Homo sapiens, UniProt P16083, L47F)
- ASSAY COMMENT: thermal scanning fluorimetry KD,app (FAD fluorescence)
- Type: binding
PROPERTY: Kd (mM)
Give your result in mM as a bare value.

compound NC(=O)c1cccnc1 [nicotinamide] , Kd observed: 14.4
